procedure_text: Compound cytotoxicity, XTT-based colorimetric assay
Format: cell-based
experimental_setup: human; uninfected MT2 cells, day 4, XTT; read-out: CC50
Measured CC50 at 4 days by item

[
  {
    "molecule": "CS(=O)(=O)Nc1nn(CC(F)F)c2c(-n3c([C@H](Cc4cc(F)cc(F)c4)NC(=O)Cn4nc(C(F)F)c5c4C(F)(F)[C@@H]4C[C@H]54)nc4cc(N5CCOCC5)ccc4c3=O)ccc(Cl)c12 (atropisomer, axis not shown; (P))",
    "CC50 at 4 days": "> 500 nM"
  }
]

-- ask State its CC50 at 4 days for this molecule: Cn1nc(NS(C)(=O)=O)c2c(Cl)ccc(-n3c([C@H](Cc4cc(F)cc(F)c4)NC(=O)Cn4nc(C(F)F)c5c4C(F)(F)[C@@H]4C[C@H]54)nc4cc(N5CCCOCC5)ccc4c3=O)c21 (atropisomer, axis not shown; (P))
-- reply > 1000 nM

-- ask State its CC50 at 4 days for this molecule: CO[C@@H]1CCN(c2ccc3c(=O)n(-c4ccc(Cl)c5c(NS(C)(=O)=O)nn(C)c45)c([C@H](Cc4cc(F)cc(F)c4)NC(=O)Cn4nc(C(F)F)c5c4C(F)(F)[C@@H]4C[C@H]54)nc3c2)C1 (atropisomer, axis not shown; (P))
-- reply > 500 nM

-- ask State its CC50 at 4 days for this molecule: Cn1nc(NS(C)(=O)=O)c2c(Cl)ccc(-n3c([C@H](Cc4cc(F)cc(F)c4)NC(=O)Cn4nc(C(F)F)c5c4C(F)(F)[C@@H]4C[C@H]54)nc4cc(N5CCC6(CC5)COC6)ccc4c3=O)c21 (atropisomer, axis not shown; (P))
-- reply > 500 nM

-- ask State its CC50 at 4 days for this molecule: CCS(=O)(=O)Nc1nn(C)c2c(-n3c([C@H](Cc4cc(F)cc(F)c4)NC(=O)Cn4nc(C(F)F)c5c4C(F)(F)[C@@H]4C[C@H]54)nc4cc(N5CCOCC5)ccc4c3=O)ccc(Cl)c12 (atropisomer, axis not shown; (P))
-- reply > 500 nM

-- ask State its CC50 at 4 days for this molecule: C[C@@H]1CN(c2ccc3c(=O)n(-c4ccc(Cl)c5c(NS(C)(=O)=O)nn(CC(F)F)c45)c([C@H](Cc4cc(F)cc(F)c4)NC(=O)Cn4nc(C5CC5)cc4C(F)F)nc3c2)C[C@H](C)O1 (atropisomer, axis not shown; (P))
-- reply > 500 nM

-- ask State its CC50 at 4 days for this molecule: CC(C(=O)N[C@@H](Cc1cc(F)cc(F)c1)c1nc2cc(N3C[C@@H](C)O[C@@H](C)C3)ccc2c(=O)n1-c1ccc(Cl)c2c(NS(C)(=O)=O)nn(CC(F)F)c12)n1nc(C(F)(F)F)cc1C1CC1 (some centres unmarked)
-- reply > 500 nM

-- ask State its CC50 at 4 days for this molecule: Cn1nc(NS(C)(=O)=O)c2c(Cl)ccc(-n3c([C@H](Cc4cc(F)cc(F)c4)NC(=O)Cn4nc(C(F)F)c5c4C(F)(F)[C@@H]4C[C@H]54)nc4cc(NCc5ccccc5)ccc4c3=O)c21 (atropisomer, axis not shown; (P))
-- reply > 1000 nM
